Examples of compounds with documented displacement follow.
Biological target: Bcl-2-like protein 10 (Homo sapiens)
Assay: TR3 peptide-Bcl-B binding displacers, biochemical primary FP assay, phenotype converters (AID 1240);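 further: 0% = Bcl-B with tracer peptide and DMSO and 100% = tracer peptide lacking Bcl-B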
Conditions: GST-Bcl-B / FITC-TR3 peptide fluorescence polarization; stronger effect = higher value; compound at 3.75 mg/L
In all, about 50,000 compounds went through this assay and about 800 (1.6%) showed an effect of 50% or more. Only a selection was taken, and strong results are over-represented in it overall.

{"columns": ["compound", "displacement, %"],
 "data": [
  ["COc1ccc(Br)cc1C(=O)Nc1cccc(-c2nc3ncccc3o2)c1C", -3.8],
  ["COc1cc2ccccc2cc1C(=O)Nc1cccc(-c2nc3cc(C)cc(C)c3o2)c1C", 26.5],
  ["COc1ccc(Br)cc1/C=C/C(=O)Nc1cccc(-c2nc3ncccc3o2)c1C", 95.3],
  ["O=C(NCC1CCS(=O)(=O)C1)OC1CCCCC1 (stereo not drawn)", 2],
  ["O=C(/C=C/c1cccc([N+](=O)[O-])c1)Nc1ccc(-c2nc3ccccc3o2)cc1", -5.2],
  ["O=C1NC(=Nc2ccc(Cl)cc2)SC1Cc1cccc([N+](=O)[O-])c1 (stereo not drawn)", -4.7],
  ["O=C(/C=C/c1ccccc1)Nc1ccc(-c2nc3ccccc3o2)c(O)c1", 127],
  ["N/C(=N\\c1nc2ccccc2o1)NC(=O)c1ccccc1", -10.3],
  ["CCOC(=O)COc1ccc(/C=C2\\C(=O)NC(=O)N(c3ccc(OC)cc3)C2=O)cc1OC", 0.6],
  ["COc1ccccc1NC(=O)N1CCOCC1", -6.8],
  ["N#C/C(=C\\c1ccc(Cl)cc1)c1nn(CCO)c(N)c1C#N", 11.2],
  ["CC1(C)CC(NCC(=O)OC2CCCCC2)CC(C)(C)N1", 12.1],
  ["O=C(COc1ccc(C=C2C(=O)NC(=O)NC2=O)cc1)NCCc1ccccc1", 82.5],
  ["CCOc1ccc(C(=O)Nc2ccc(O)c(-c3nc4ccccc4s3)c2)cc1Cl", 6.3],
  ["COc1ccc(Cl)cc1C(=O)N(Cc1ccccc1)C(C)C", 11.9],
  ["CC(C)NC(=O)COc1ccc(C=C2C(=O)NC(=O)NC2=O)cc1", 1.8],
  ["NC(CC(=O)OC1CCCCC1)C(=O)OC1CCCCC1 (stereo not drawn)", 74.3],
  ["Cc1ccc(C(=O)COc2cc(OCC(=O)c3ccc(C)cc3)c3c(C)cc(=O)oc3c2)cc1", 10],
  ["O=C(/C=C/c1ccc(Cl)cc1)Nc1ccc(-c2nc3ccccc3o2)c(O)c1", -0.3],
  ["N#C/C(=C\\c1ccc(F)cc1)c1nn(CCO)c(N)c1C#N", -45.5],
  ["COc1cc(OC)cc(C(=O)Nc2ccc(-c3nc4cc(C)cc(C)c4o3)cc2)c1", 55.3],
  ["COc1cc(OC)cc(C(=O)Nc2cccc(-c3nc4ncccc4o3)c2C)c1", 5.6],
  ["CC(NC(=O)c1cc2cc([N+](=O)[O-])ccc2oc1=O)c1ccccc1 (stereo not drawn)", 12.2],
  ["COCCNC(=O)Cc1ccc(Br)cc1", 13.1],
  ["O=S(=O)(c1ccc(Cl)cc1)n1cccc1", 6.8],
  ["CCN(CC)c1ccc(/C=C(\\C#N)c2nn(CCO)c(N)c2C#N)cc1", 68.2],
  ["N/C(=N/c1nc2ccccc2o1)NC(=O)c1sc2ccccc2c1Cl", 51.6],
  ["COc1ccc(OC)c(C2NC(=S)NC(C)=C2C(=O)OCCc2ccccc2)c1 (stereo not drawn)", 3.9],
  ["COc1ccccc1NC(=O)C1=C(C)NC(=O)NC1c1cccc([N+](=O)[O-])c1 (stereo not drawn)", -7.1],
  ["Cc1c(NC(=O)/C=C/c2cccc([N+](=O)[O-])c2)cccc1-c1nc2ncccc2o1", 74.8],
  ["COc1ccc(Br)cc1/C=C/C(=O)Nc1ccc(-c2nc3ncccc3o2)cc1", -4.5],
  ["COc1cc(OC)cc(C(=O)Nc2ccc3oc(-c4ccc(I)cc4)nc3c2)c1", -5.8],
  ["O=C(Nc1ccc([N+](=O)[O-])cn1)c1cc(-c2ccc(Cl)c(Cl)c2)nc2ccccc12", 52.4],
  ["O=C(Nc1ccccn1)c1cc(-c2ccc(Cl)c(Cl)c2)nc2ccccc12", 10],
  ["O=C(Nc1ccc(Cl)c(Cl)c1)C(c1ccccc1)c1ccccc1", 15.4],
  ["CCN(CC)CCSc1nc(O)c(C2CCCCC2)c(=O)[nH]1", -6.4],
  ["O=C(/C=C/c1ccccc1)Nc1ccc(O)c(-c2nc3ccccc3o2)c1", -3.2],
  ["Cc1ccc(-c2nc3cc(Cl)ccc3o2)cc1NC(=O)/C=C/c1cccc([N+](=O)[O-])c1", -18.8]
]}

---

Target: Bcl-2-like protein 10 (Homo sapiens) (UniProt Q9HD36)
Sequence (Q9HD36 whole entry, looked up): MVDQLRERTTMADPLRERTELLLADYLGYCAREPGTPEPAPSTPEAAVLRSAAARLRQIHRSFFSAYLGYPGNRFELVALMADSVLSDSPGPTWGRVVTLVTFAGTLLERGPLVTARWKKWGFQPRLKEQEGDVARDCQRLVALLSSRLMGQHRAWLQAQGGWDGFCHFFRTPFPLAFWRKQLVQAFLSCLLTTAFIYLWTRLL
Test: TR3 peptide-Bcl-B binding displacers, biochemical primary FP assay, phenotype converters (AID 1240);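 further: 0% = Bcl-B with tracer peptide and DMSO and 100% = tracer peptide lacking Bcl-B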
Settings: GST-Bcl-B / FITC-TR3 peptide fluorescence polarization; stronger effect = higher value; compound at 3.75 mg/L
The campaign covered roughly 50,000 compounds. About 800 (1.6%) showed an effect of 50% or more. The full list was thinned out, with strong results kept by preference.

{"columns": ["compound", "units.symbol", "displacement"],
 "data": [
  ["O=C(NCc1cccnc1)C(=O)N1CCCCC1", "%", -1.4],
  ["Cc1cc(/C=C2\\C(=O)NC(=O)N(C)C2=O)c(C)n1-c1ccc(N(C)C)cc1", "%", 124],
  ["Cc1cc(C=C2C(=O)NC(=O)NC2=O)c(C)n1-c1ccc(N2CCOCC2)cc1", "%", 126],
  ["Cc1cc(C=C2C(=O)NC(=O)NC2=O)c(C)n1-c1ccc(Cl)cc1", "%", 106],
  ["CCOC(=O)/C(C#N)=C/c1ccc(OCc2c(C)no[n+]2[O-])cc1", "%", -1.9],
  ["O=C(Nc1nc(-c2ccc(F)cc2)cs1)c1ccc(S(=O)(=O)N2CCCCCC2)cc1", "%", 129],
  ["O=C(O)c1ccc(-c2ccc(C=C3C(=O)c4ccccc4C3=O)o2)cc1Cl", "%", 25.2],
  ["O=C(O)c1ccc(Cl)c(-c2ccc(C=C3C(=O)c4ccccc4C3=O)o2)c1", "%", 99.1],
  ["Cc1ccc(-c2nnc(N)s2)cc1C", "%", 5.1],
  ["COc1ccc(CCNC(=O)C(=O)Nc2ccc3c(c2)OCCO3)cc1OC", "%", 3.4],
  ["C/C(=N\\OC/C(O)=C(\\C#N)c1nc2ccccc2[nH]1)c1ccc(Br)cc1", "%", 46.6],
  ["O=C(Nc1ccc2nc3c4ccccc4c4ccccc4c3nc2c1)N1CCOCC1", "%", 77.1],
  ["N#C/C(=C(/O)CO/N=C/c1ccccc1Cl)c1nc2ccccc2[nH]1", "%", 53.6],
  ["COc1ccc(CCN2C(=O)/C(=C\\c3ccc(C(C)C)cc3)SC2=S)cc1OC", "%", -0.4],
  ["Cc1cc(/C=C2/NC(=O)NC2=O)c(C)n1-c1ccc(Cl)cc1", "%", 10.7],
  ["O=C1CC(N2CCN(Cc3ccccc3)CC2)C(=O)N1c1ccc(Cl)c(Cl)c1 (configuration not stated)", "%", 1.7],
  ["O=C(Nc1ccc(N2CCOCC2)cc1)c1ccc(-c2ccc(Cl)cc2Cl)o1", "%", -4.5]
]}

---

Target: Bcl-2-like protein 10 (Homo sapiens) (UniProt Q9HD36)
Test: TR3 peptide-Bcl-B binding displacers, biochemical primary FP assay, phenotype converters (AID 1240);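 further: 0% = Bcl-B with tracer peptide and DMSO and 100% = tracer peptide lacking Bcl-B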
Conditions: GST-Bcl-B / FITC-TR3 peptide fluorescence polarization; stronger effect = higher value; compound at 3.75 mg/L
Screen size: about 50,000 compounds; about 800 (1.6%) showed an effect of 50% or more. For the sample, strong results were picked, then their nearest neighbours and some compounds at random.

{"columns": ["compound", "test.target", "units.symbol", "displacement"],
 "data": [
  ["O=C(Nc1cccc(NC(=O)c2ccccc2Cl)c1)c1ccc(-c2ccc(Br)cc2)o1", "Bcl-2-like protein 10 (Homo sapiens) (UniProt Q9HD36)", "%", 57.3],
  ["O=C(Nc1cccc(NC(=O)c2ccc(Cl)cc2Cl)c1)c1ccc(-c2ccc([N+](=O)[O-])cc2)o1", "Bcl-2-like protein 10 (Homo sapiens) (UniProt Q9HD36)", "%", 106],
  ["O=C(NNC(=O)c1cccc(Cl)c1)c1cccc(F)c1", "Bcl-2-like protein 10 (Homo sapiens) (UniProt Q9HD36)", "%", -4.7],
  ["O=C(Nc1cc(Cl)cc(Cl)c1)c1ccc(-c2ccc([N+](=O)[O-])cc2)o1", "Bcl-2-like protein 10 (Homo sapiens) (UniProt Q9HD36)", "%", 5.1],
  ["Cc1ccc(/C=C/C(=O)N2CCN(c3ccccc3)CC2)o1", "Bcl-2-like protein 10 (Homo sapiens) (UniProt Q9HD36)", "%", 3.6],
  ["COc1ccc(C2NCCc3c2[nH]c2ccccc32)cc1OC (configuration not stated)", "Bcl-2-like protein 10 (Homo sapiens) (UniProt Q9HD36)", "%", 8.4],
  ["CC(=O)c1ccc(NC(=O)c2ccc(-c3ccc(Cl)cc3Cl)o2)cc1", "Bcl-2-like protein 10 (Homo sapiens) (UniProt Q9HD36)", "%", -1.3],
  ["COc1cc(OC)c(OC)cc1/C=N/NC(=O)CSc1nc2ccccc2[nH]1", "Bcl-2-like protein 10 (Homo sapiens) (UniProt Q9HD36)", "%", 0.1],
  ["C/C(=N\\N=C1\\NC(=O)C(CC(=O)NCc2ccccc2)S1)C(C)C (configuration not stated)", "Bcl-2-like protein 10 (Homo sapiens) (UniProt Q9HD36)", "%", 0.3],
  ["Cc1ccc(-c2ccc(C(=O)Nc3cccnc3)o2)cc1Cl", "Bcl-2-like protein 10 (Homo sapiens) (UniProt Q9HD36)", "%", 5.6],
  ["Cc1ccc(-c2ccc(C(=O)Nc3ccc(N4CCOCC4)cc3)o2)cc1Cl", "Bcl-2-like protein 10 (Homo sapiens) (UniProt Q9HD36)", "%", 10.8],
  ["CCOCCOC(=O)c1ccc(NC(=O)COc2ccc(C)cc2C)cc1", "Bcl-2-like protein 10 (Homo sapiens) (UniProt Q9HD36)", "%", -9],
  ["CC(=O)c1cccc(NC(=O)c2ccc(-c3ccc(Cl)cc3Cl)o2)c1", "Bcl-2-like protein 10 (Homo sapiens) (UniProt Q9HD36)", "%", -4.6],
  ["CCOc1ccc(C(=O)Nc2cccc3nsnc23)cc1Cl", "Bcl-2-like protein 10 (Homo sapiens) (UniProt Q9HD36)", "%", 30.9],
  ["O=C(Nc1cccc([N+](=O)[O-])c1)c1ccc(-c2ccc(Cl)cc2)o1", "Bcl-2-like protein 10 (Homo sapiens) (UniProt Q9HD36)", "%", 9],
  ["O=S1(=O)CCC(NC(=S)SCCOc2ccccc2OCCO)C1 (configuration not stated)", "Bcl-2-like protein 10 (Homo sapiens) (UniProt Q9HD36)", "%", 6.3],
  ["O=C(Nc1cccc2nsnc12)c1ccco1", "Bcl-2-like protein 10 (Homo sapiens) (UniProt Q9HD36)", "%", 4]
]}
